# solubility values compiled below
Experiment: Solubility of co-crystal and reactants in organic solvents at 25° C.
Format: physicochemical
Settings: organic solvent or mixture, thermodynamic from solid, ethanol, mean +/− deviation, sample size 3, read-out: Solubility in Ethanol
Protocol: The predicted reduction in solubility of the co-crystal is borne out experimentally as illustrated, for example in FIG. 4, which uses the carbamazepine nicotinamide 1:1 co-crystal (CBZ:NCT) for illustration. The CBZ:NCT co-crystal is known; solubilities for the co-crystal and the reactants CBZ and NCT in three solvents (ethanol, […]) are given in the table. Solubilities are given at 25° C. and are expressed as the mean +/− the deviation for a sample size of 3. […]
Entry rule: numbers only, all in mM.

Ask: What value of solubility has been recorded for this entry: NC(=O)c1cccnc1 [NCT(I), Nicotinamide]
Reply: 841

Ask: What value of solubility has been recorded for this entry: NC(=O)N1c2ccccc2C=Cc2ccccc21 [CBZ(III), carbamazepine]
Reply: 108

Data origin, for the record: patent US20070099237A1
